Target: full-length beta-Catenin (Uniprot ID P35222) (Homo sapiens, UniProt P35222)
Construct: 10 nM full-length beta-Catenin (Uniprot ID P35222)
Sequence (P35222 1-781): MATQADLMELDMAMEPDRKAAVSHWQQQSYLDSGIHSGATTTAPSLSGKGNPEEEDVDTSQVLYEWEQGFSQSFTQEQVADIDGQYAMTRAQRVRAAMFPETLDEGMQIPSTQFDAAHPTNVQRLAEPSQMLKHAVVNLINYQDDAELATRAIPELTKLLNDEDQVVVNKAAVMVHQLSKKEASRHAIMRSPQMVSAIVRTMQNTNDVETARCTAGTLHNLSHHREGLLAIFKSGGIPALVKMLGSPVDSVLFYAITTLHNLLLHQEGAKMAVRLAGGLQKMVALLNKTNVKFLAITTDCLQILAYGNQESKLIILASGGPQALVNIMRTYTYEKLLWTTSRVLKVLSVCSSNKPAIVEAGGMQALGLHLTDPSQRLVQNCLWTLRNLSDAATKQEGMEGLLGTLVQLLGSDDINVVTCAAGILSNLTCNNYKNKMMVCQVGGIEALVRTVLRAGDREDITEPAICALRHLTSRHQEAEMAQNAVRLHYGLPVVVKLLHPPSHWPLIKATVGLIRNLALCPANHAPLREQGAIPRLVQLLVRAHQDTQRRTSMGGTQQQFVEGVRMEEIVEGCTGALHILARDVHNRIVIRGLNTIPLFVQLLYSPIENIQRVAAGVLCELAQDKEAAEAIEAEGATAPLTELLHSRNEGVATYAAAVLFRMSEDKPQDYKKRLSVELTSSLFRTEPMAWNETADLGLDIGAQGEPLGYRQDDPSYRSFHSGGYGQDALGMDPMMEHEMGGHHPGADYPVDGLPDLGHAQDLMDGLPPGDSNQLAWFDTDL
Test: Fluorescence polarization IC50 (beta-catenin / 5FAM-TCF4 10-53 competition)
Format: binding
Conditions: fluorescence polarization; read-out: beta-Catenin FP IC50
reported_metric: IC50

Completed entries (count: 2):
compound="CCCC[C@@H]1NC(=O)[C@H](Cc2ccccc2)NC(=O)[C@H](C)NC(=O)[C@H](C)NC(=O)[C@H](Cc2cccc(C(=O)O)c2)NC(=O)[C@H](CC(=O)O)NC(=O)C2(CCCC=CCCCOC(=O)N3CC[C@@](C(=O)N[C@@H](Cc4ccccc4C(F)(F)F)C(=O)N[C@@H](Cc4csc5ccccc45)C(=O)N[C@@H](CCC(=O)N4CCOCC4)C(N)=O)(C3)NC1=O)CCCC=CC[C@]1(CCCN1C(C)=O)C(=O)N[C@@H](CC(=O)O)C(=O)N[C@@H](CC(C)(C)C)C(=O)N2 (stereo partly drawn)" measured_on="full-length beta-Catenin (Uniprot ID P35222) (Homo sapiens, UniProt P35222)" reported_metric=IC50 result="23 nM"
compound="CC(=O)N1CCC[C@]12CC=CCCCC1(CCCC=CCCCCCC[C@@](C)(C(=O)N[C@@H](Cc3ccsc3)C(=O)N[C@@H](Cc3csc4ccccc34)C(=O)N[C@@H](Cc3c[nH]cn3)C(N)=O)NC(=O)[C@H](CC(N)=O)NC(=O)[C@H](Cc3ccccc3)NC(=O)[C@H](C)NC(=O)[C@H](C)NC(=O)[C@H](CCC(=O)O)NC(=O)[C@H](CC(=O)O)NC1=O)NC(=O)[C@H](C)NC(=O)[C@H](CC(=O)O)NC2=O (stereo partly drawn) [I-515]" measured_on="full-length beta-Catenin (Uniprot ID P35222) (Homo sapiens, UniProt P35222)" reported_metric=IC50 result="54 nM"

Now for the compound whose IC50 we want.
Ask | Entry CC(=O)N1CCC[C@]12CC=CCCCC1(CCCC=CCCCOC(=O)N3CC[C@@](C(=O)N[C@@H](Cc4ccccc4)C(=O)N[C@@H](Cc4csc5ccccc45)C(=O)N[C@@H](CCC(N)=O)C(N)=O)(C3)NC(=O)[C@H](CC(C)C)NC(=O)[C@H](Cc3ccccc3)NC(=O)[C@H](C)NC(=O)[C@H](CCCCNC(C)C)NC(=O)[C@H](CCC(N)=O)NC(=O)[C@H](CC(=O)O)NC1=O)NC(=O)[C@H](CC1CCCCC1)NC(=O)[C@H](CCO)NC2=O (stereo partly drawn) : reported IC50 = ?
Reply | 2760 nM

----------
Target: full-length beta-Catenin (Uniprot ID P35222) (Homo sapiens)
Construct: 10 nM full-length beta-Catenin (Uniprot ID P35222)
Test: Fluorescence polarization IC50 (beta-catenin / 5FAM-TCF4 10-53 competition)
Assay type: binding
Conditions: fluorescence polarization; read-out: beta-Catenin FP IC50
reported_metric: IC50 (nM)
Numbers only, in nM.

compound="CC(=O)N1CCC[C@]12CC=CCCCC1(CCCC=CCCCOC(=O)N3CC[C@@](C(=O)N[C@@H](Cc4ccccc4Cl)C(=O)N[C@@H](Cc4csc5ccccc45)C(=O)N[C@H](C)C(N)=O)(C3)NC(=O)[C@H](CO)NC(=O)[C@H](Cc3ccccc3)NC(=O)[C@H](C)NC(=O)[C@H](C)NC(=O)[C@H](Cc3cccc(C(=O)O)c3)NC(=O)[C@H](CC(=O)O)NC1=O)NC(=O)[C@H](CC(C)(C)C)NC(=O)[C@H](CC(=O)O)NC2=O (some centres unmarked) [I-2030]" reported_metric=IC50 uom=nM recorded_number=22
compound="CCCC[C@@H]1NC(=O)[C@H](CCC(=O)O)NC(=O)[C@H](CC(=O)O)NC(=O)C2(CCCC=CCCCCCC[C@@](C)(C(=O)N[C@@H](Cc3ccccc3)C(=O)N[C@@H](Cc3csc4ccccc34)C(=O)N[C@@H](CCC(N)=O)C(N)=O)NC(=O)[C@H](CCC(N)=O)NC(=O)[C@H](Cc3ccccc3)NC(=O)[C@H](C)NC1=O)CCCC=CC[C@]1(CCCN1C(C)=O)C(=O)N[C@@H](CC(=O)O)C(=O)N[C@@H]([C@@H](C)CC)C(=O)N2 (some centres unmarked) [I-657]" reported_metric=IC50 uom=nM recorded_number=46
compound="CC[C@H](C)[C@@H]1NC(=O)[C@H](CC(=O)O)NC(=O)[C@]2(CC=CCCCC3(CCCC=CCCCCCC[C@@](C)(C(=O)N[C@@H](Cc4ccccc4)C(=O)N[C@@H](Cc4csc5ccccc45)C(=O)N[C@@H](CCCNC(=N)N)C(N)=O)NC(=O)[C@H](CCC(N)=O)NC(=O)[C@H](Cc4ccccc4)NC(=O)[C@H](C)NC(=O)[C@H](C)NC(=O)[C@H](CCC(=O)O)NC(=O)[C@H](CC(=O)O)NC3=O)NC1=O)CCCN2C(C)=O (some centres unmarked) [I-633]" reported_metric=IC50 uom=nM recorded_number=88
compound="CC(=O)N1CCC[C@]12CC=CCCCC1(CCCC=CCCCOC(=O)N3CC[C@@](C(=O)N[C@@H](Cc4ccsc4)C(=O)N[C@@H](Cc4csc5ccccc45)C(=O)N[C@@H](CCC(=O)N4CC[C@@H](N(C)C)C4)C(N)=O)(C3)NC(=O)[C@H](CC(C)C)NC(=O)[C@H](Cc3ccccc3)NC(=O)[C@H](C)NC(=O)[C@H](C)NC(=O)[C@H](CN(CC(=O)O)CC(F)(F)F)NC(=O)[C@H](CC(=O)O)NC1=O)NC(=O)[C@H](CC(C)(C)C)NC(=O)[C@H](CC(=O)O)NC2=O (some centres unmarked) [I-1805]" reported_metric=IC50 uom=nM recorded_number=6

Ask | # get_value(readout= IC50, system= full-length beta-Catenin (Uniprot ID P35222) (Homo sapiens)) for CC[C@H](C)[C@H](NC(=O)[C@H](CCC(N)=O)NC(=O)[C@H](Cc1csc2ccccc12)NC(=O)[C@H](Cc1ccccc1)NC(=O)[C@]1(C)CCCCCCC=CCCCC2(CCCC=CC[C@]3(CCCN3C(C)=O)C(=O)N[C@@H](CC(=O)O)C(=O)N[C@@H](CC(C)C)C(=O)N2)C(=O)N[C@@H](CC(=O)O)C(=O)N[C@@H](CCC(=O)O)C(=O)N[C@@H](C)C(=O)N[C@@H](C)C(=O)N[C@@H](Cc2ccccc2)C(=O)N[C@@H](CC(N)=O)C(=O)N1)C(N)=O (some centres unmarked) [I-732]
Reply | 4220

----------
Target: full-length beta-Catenin (Uniprot ID P35222) (Homo sapiens)
Construct: 10 nM full-length beta-Catenin (Uniprot ID P35222)
Assay: Fluorescence polarization IC50 (beta-catenin / 5FAM-TCF4 10-53 competition)
Format: binding
Conditions: fluorescence polarization; read-out: beta-Catenin FP IC50
pIC50: −log10 of the molar value.
Output Criterion met for pIC50 not less than 7; output Criterion not met otherwise.

compound="CC[C@H](C)[C@@H]1NC(=O)[C@H](CC(=O)O)NC(=O)[C@]2(CC=CCCCC3(CCCC=CCCCCCC[C@@](C)(C(=O)N[C@@H](Cc4ccccc4)C(=O)N[C@@H](Cc4csc5ccccc45)C(=O)N[C@@H](CCC(N)=O)C(N)=O)NC(=O)[C@H](CCC(N)=O)NC(=O)[C@H](Cc4ccccc4)NC(=O)[C@H](C)NC(=O)[C@H](CC(C)C)NC(=O)[C@H](CCC(=O)O)NC(=O)[C@H](CC(=O)O)NC3=O)NC1=O)CCCN2C(C)=O (some centres unmarked) [I-647]" class="Criterion not met"
compound="CC(=O)N1CCC[C@]12CCCCCCC1(CCCCCCCCOC(=O)N3CC[C@@](C(=O)N[C@@H](Cc4ccsc4)C(=O)N[C@@H](Cc4csc5ccccc45)C(=O)N[C@@H](C)C(N)=O)(C3)NC(=O)[C@H](CC(C)C)NC(=O)[C@H](Cc3ccccc3)NC(=O)[C@H](C)NC(=O)[C@H](C)NC(=O)[C@H](CN(CC(=O)O)CC(F)(F)F)NC(=O)[C@H](CC(=O)O)NC1=O)NC(=O)[C@H](CC(C)(C)C)NC(=O)[C@H](CC(=O)O)NC2=O (some centres unmarked)" class="Criterion not met"
compound="CC[C@H](C)[C@@H]1NC(=O)[C@H](CC(=O)O)NC(=O)[C@]2(CC=CCCCC3(CCCC=CCCCCCC[C@@](C)(C(=O)N[C@@H](Cc4ccccc4)C(=O)N[C@@H](Cc4csc5ccccc45)C(=O)N[C@@H](CCC(N)=O)C(N)=O)NC(=O)[C@H](CCC(N)=O)NC(=O)[C@H](Cc4ccccc4)NC(=O)[C@H](CCC(N)=O)NC(=O)[C@H](C)NC(=O)[C@H](CCC(=O)O)NC(=O)[C@H](CC(=O)O)NC3=O)NC1=O)CCCN2C(C)=O (some centres unmarked)" class="Criterion met"

// switching to the query compound
Ask | Given the entry CC(=O)N1CCC[C@]12CC=CCCCC1(CCCC=CCCCOC(=O)N3CC[C@@](C(=O)N[C@@H](Cc4ccsc4)C(=O)N[C@@H](Cc4csc5ccccc45)C(=O)N[C@@H](CCC(N)=O)C(N)=O)(C3)NC(=O)[C@H](CC(C)C)NC(=O)[C@H](Cc3ccccc3)NC(=O)[C@H](C)NC(=O)[C@H](C)NC(=O)[C@H](CO)NC(=O)[C@H](CC(=O)O)NC1=O)NC(=O)[C@H](CC(C)(C)C)NC(=O)[C@H](CC(=O)O)NC2=O (some centres unmarked) , answer whether its pIC50 meets or surpasses 7.
Reply | Criterion met
